Data credit: patent US8946438B2

The following compounds are shown together with reported inhibition at 1 µM values.
Target: p38 MAP-kinase (Homo sapiens, UniProt Q16539)
Sequence (Q16539 whole entry): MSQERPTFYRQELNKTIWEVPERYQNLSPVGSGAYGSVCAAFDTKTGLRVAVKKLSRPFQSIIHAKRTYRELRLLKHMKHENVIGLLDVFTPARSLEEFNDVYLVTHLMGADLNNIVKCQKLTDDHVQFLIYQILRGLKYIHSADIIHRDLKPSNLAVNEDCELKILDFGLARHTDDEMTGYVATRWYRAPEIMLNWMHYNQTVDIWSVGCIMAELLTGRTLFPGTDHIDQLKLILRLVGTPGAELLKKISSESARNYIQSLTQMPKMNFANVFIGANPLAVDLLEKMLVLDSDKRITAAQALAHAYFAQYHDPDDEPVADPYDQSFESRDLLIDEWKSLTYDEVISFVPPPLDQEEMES
Assay: Enzymatic assay: inhibition of p38 MAP-kinase (phosphorylation of GST-tagged ATF2, chemoluminescence bead readout)
Type: biochemical
Details: inhibitor 1 μM; activated p38 MAP-kinase 1 nM; 4 h preincubation; ATP 100 μM; ATF2 10 nM; read-out: % inhibitory effect at 1 μM
I only need the number, in %, no unit after it.

[
  {
    "compound": "COc1c(NC(=O)c2ccc(C)c(Oc3cc(N(C)C4CCN(C)CC4)ncn3)c2)cc(C(C)(C)C)cc1NS(C)(=O)=O [4(17)]",
    "inhibition at 1 µM (%)": 98.7
  },
  {
    "compound": "COc1c(NC(=O)CC(C)C)cc(C(C)(C)C)cc1NC(=O)c1ccc(C)c(Oc2ccnc(CC3CCNCC3)c2)c1 [11(4)]",
    "inhibition at 1 µM (%)": 95.1
  },
  {
    "compound": "COc1c(NC(=O)c2ccc(C)c(Oc3cc(CC4CCCN(C)CC4)ncn3)c2)cc(C(C)(C)C)cc1NS(C)(=O)=O (stereo not shown) [12(7)]",
    "inhibition at 1 µM (%)": 99.8
  }
]

Now turn to the next compound.
Please give the measured inhibition at 1 µM for this compound: COc1c(NC(=O)c2ccc(Cl)c(Oc3cc(CN4CCN(C)CC4)ncn3)c2)cc(C(C)(C)C)cc1NS(C)(=O)=O [12(1)]
99.4
